assay: recombinant UMI read abundance after kanamycin selection (control-corrected) (log10(CPM+1)); higher = more efficient recombination; extreme values may be limits of the assay; sequences stand for … in AGTGCAGAGAAAATCGGCCAGTTTTCTCTGCCTGCAGTCCGCATGCCGTGGGACCCCTTGGGTTCTAACCTGTTGCCTAGATTTATGCAGCGGACTGCCTTTCTCCCAAAGTGATAAACCGG…AGGTTGGTTTCACT; site = the 11-nt donor;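 also: IS621 bridge recombinase in Escherichia coli cells against a fixed T5 target plasmid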
Hi all, reminder that labels come from recombinant UMI read abundance (log10), split as low interval (below 0.01), middle interval (0.01 to below 0.9), high interval (0.9 or more)

sequenceInput	labelClass
TGTTACCCATGGACCGGTTTTCCCGGTAATCCGTATTTGTA (site TGTTACCCTTA)	middle interval
GCGAAAGCATGGACCGGTTTTCCCGGTAATCCGTATTTGCT (site GCGAAATCTAG)	low interval
TTCTACGCATGGACCGGTTTTCCCGGTAATCCGTATTTGTT (site TTCTACGCTAA)	middle interval
GCTTTAGCATGGACCGGTTTTCCCGGTAATCCGTATTTGTT (site GCTTTAGCTAA)	low interval
CCAGTATCATGGACCGGTTTTCCCGGTAATCCGTATTTGAC (site CCAGTATCTGT)	middle interval
ATGCAAGCATGGACCGGTTTTCCCGGTAATCCGTATTTGAG (site ATACAAGCTCT)	high interval
GAATGGACATGGACCGGTTTTCCCGGTAATCCGTATTTGCA (site GAATGGACTTG)	high interval
AGATCAGCATGGACCGGTTTTCCCGGTAATCCGTATTTGGG (site AGGTCAGCTCC)	middle interval
